Reference for the values: PubChem BioAssay (NCI)

System: K-562 leukemia
Assay: NCI-60 one-dose screen, 48 h
Settings: 10 µM unless noted
The panel holds about 83,000 compounds, 20% with a hit somewhere; the sample as a whole holds those more often. Calls of active or inactive are those of the source. The calls were made as follows: active = growth percent below 10; inactive = the rest.
Labels: active, inactive

compound=CCCCCCNC(=O)Oc1ccc(/C(=C(/C)c2ccccc2)c2ccc(OCCN3CCCCCC3)cc2)cc1 qualitative_label=active
compound="COC(=O)C(C)NS(=O)(=O)/N=C1\\NC(=O)NC1=C(Cl)Cl (centres undefined)" qualitative_label=inactive
compound=Nc1cc(-c2c[nH]c3ccc(Cl)cc23)nc2cc(-c3c[nH]c4ccc(Cl)cc34)nn12 qualitative_label=active
compound=Cc1cc(C(=O)Nc2sc3c(c2C(N)=O)CCC(=O)C3)ccc1OCCN1CCCCC1 qualitative_label=inactive
compound=OC1CCN(CCCOc2c3ccc(Cl)cc3nc3c2oc2ccccc23)CC1 qualitative_label=active
compound=CN(C)CCCNc1c2ccc(Cl)cc2nc2c1oc1ccccc12 qualitative_label=active
compound=Nc1c(C(=O)Nc2ccc(Cl)cc2)sc2nc(-c3cnccn3)cc(-c3cccs3)c12 qualitative_label=inactive
compound="CCN1C(=S)N(c2ccccc2)C2NC(=O)N(/N=C/C=C/c3ccccc3OC)C21 (centres undefined)" qualitative_label=inactive
compound=CCN1CCN(/C(=N\c2sc(-c3ccccc3)nc2-c2ccccc2)c2ccccc2)CC1 qualitative_label=inactive
compound=COc1cc(OC)c(S(=O)(=O)NNC(=O)c2ccncc2)cc1C(=O)/C=C/c1ccc(C)cc1 qualitative_label=inactive
compound=CCOC(=O)c1c(Nc2ccccc2)nn2c(N)c(C#N)c(-c3ccccc3)nc12 qualitative_label=inactive
compound=C#C[C@]1(O)CC[C@H]2[C@@H]3CC=C4c5sc(Nc6ccc(Cl)cn6)nc5CC[C@]4(C)[C@H]3CC[C@@]21C qualitative_label=active
compound=COc1cc(/C=C/C(=O)c2cc(OC)c(OC)c(OC)c2)ccc1Oc1nc(NCCO)nc(N2CCOCC2)n1 qualitative_label=active
compound="COc1cc2nc(-c3ccc(Cl)cc3)cc(OCCCNCC3CCCO3)c2cc1OC (centres undefined)" qualitative_label=inactive
compound=NC(=O)c1c(NC(=O)c2ccc(C3CCCCC3)cc2)sc2c1CCC(=O)C2 qualitative_label=active
compound=C[C@@H]1CN(c2ccc3ncc(C#Cc4cncc(C(=O)Nc5ccc(CN6CCN(C)CC6)c(C(F)(F)F)c5)c4)n3n2)C[C@H](C)O1 qualitative_label=active
compound=O=C(NNc1nc2cc(F)ccc2n2c(CN3CC4(COC4)C3)ccc12)c1cnccn1 qualitative_label=inactive
compound=Cc1nc(-c2cc3ccccc3oc2=O)ccc1C(=O)/C=C/c1ccc(N2CCOCC2)cc1 qualitative_label=inactive
compound=CC(=O)Oc1ccccc1C(=O)Nc1ccc(C(=O)/C=C/c2cccs2)cc1 qualitative_label=inactive
